# pIC50 annotations
Tested on: Caco-2
Assay: Cytotoxicity against human Caco2 cells assessed as growth inhibition incubated for 48 hrs by Hoechst 33342 staining based assay
Assay type: cell-based
Conditions: Caco-2, 48 h
Interpret pIC50 as the negative base-10 log of the concentration measured in mol/L.

CN(Cc1ccnc(NC(=O)Nc2cccc3c2C2CCCCN2C3=O)c1)Cc1cn(CCNc2c3c(nc4ccccc24)CCCC3)nn1 (racemic) = 5.05
O=C(Nc1cc(-c2cn(CCNc3c4c(nc5ccccc35)CCCC4)nn2)ccn1)Nc1cccc2c1C1CCCCN1C2=O (racemic) = 5.52
O=C(Nc1cc(-c2cn(CCNc3c4c(nc5ccccc35)CCCC4)nn2)ccn1)Nc1cccc2c1[C@@H]1CCCCN1C2=O = 5.00
O=C(Nc1cccc(-c2cn(CCNc3c4c(nc5ccccc35)CCCC4)nn2)n1)Nc1cccc2c1C1CCCCN1C2=O (racemic) = 4.62
O=C(Nc1cc(CCc2cn(CCNc3c4c(nc5ccccc35)CCCC4)nn2)ccn1)Nc1cccc2c1C1CCCCN1C2=O (racemic) = 5.32

Lookup: Entry under review: O=C(Nc1cc(COCc2cn(CCNc3c4c(nc5ccccc35)CCCC4)nn2)ccn1)Nc1cccc2c1C1CCCCN1C2=O (racemic) . Reported pIC50?
Found: 4.70

Lookup: Entry under review: O=C(Nc1cc(-c2cn(CCNc3c4c(nc5ccccc35)CCCC4)nn2)ccn1)Nc1cccc2c1[C@H]1CCCCN1C2=O . Reported pIC50?
Found: 5.10

###

Test: Cytotoxicity against human SH-SY5Y cells assessed as reduction in cell viability at 100 uM incubated for 24 hrs by MTT assay relative to untreated cells
Type: cell-based
Details: read-out: INH
MEASUREMENT_TYPE: cytotoxicity at 24 h, 100 µM
Remember to quote the unit after the number.

O=C(Nc1cc(COCc2cn(CCNc3c4c(nc5ccccc35)CCCC4)nn2)ccn1)Nc1cccc2c1C1CCCCN1C2=O (racemic) = 50%
CN(Cc1ccnc(NC(=O)Nc2cccc3c2C2CCCCN2C3=O)c1)Cc1cn(CCNc2c3c(nc4ccccc24)CCCC3)nn1 (racemic) = 50%

Now examine the next entry.
Lookup: Entry under review: O=C(Nc1cc(-c2cn(CCNc3c4c(nc5ccccc35)CCCC4)nn2)ccn1)Nc1cccc2c1C1CCCCN1C2=O (racemic) . Reported cytotoxicity at 24 h, 100 µM?
Found: 50%

###

Each entry below carries its measured IC50, system: Cyclin-dependent kinase 5/CDK5 activator 1 (Homo sapiens, UniProt Q00535).
Sequence (Q00535 whole entry): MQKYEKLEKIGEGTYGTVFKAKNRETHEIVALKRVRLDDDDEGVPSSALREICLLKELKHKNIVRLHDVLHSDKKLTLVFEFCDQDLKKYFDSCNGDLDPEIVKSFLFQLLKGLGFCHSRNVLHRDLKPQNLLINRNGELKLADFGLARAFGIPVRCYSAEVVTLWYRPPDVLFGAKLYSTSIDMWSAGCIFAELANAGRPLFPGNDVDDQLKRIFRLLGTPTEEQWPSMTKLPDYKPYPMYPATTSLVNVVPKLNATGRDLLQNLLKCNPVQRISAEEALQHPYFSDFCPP
Sequence (Q15078 whole entry, further chain): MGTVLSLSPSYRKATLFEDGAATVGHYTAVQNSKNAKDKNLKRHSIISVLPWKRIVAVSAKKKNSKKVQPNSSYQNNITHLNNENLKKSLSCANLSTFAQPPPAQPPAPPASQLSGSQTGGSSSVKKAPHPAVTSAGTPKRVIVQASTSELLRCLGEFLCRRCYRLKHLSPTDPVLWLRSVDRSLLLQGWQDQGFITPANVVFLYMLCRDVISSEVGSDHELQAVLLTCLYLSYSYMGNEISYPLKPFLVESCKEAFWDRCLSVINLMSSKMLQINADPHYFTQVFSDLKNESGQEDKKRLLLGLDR

O=C(Nc1cc(CCc2cn(CCNc3c4c(nc5ccccc35)CCCC4)nn2)ccn1)Nc1cccc2c1C1CCCCN1C2=O (racemic) = 800 nM
c1ccc2c(NCCn3ccnn3)c3c(nc2c1)CCCC3 = > 10000 nM
C#Cc1ccnc(NC(=O)Nc2cccc3c2C2CCCCN2C3=O)c1 (racemic) = 68 nM

Lookup: Notebook entry, Cyclin-dependent kinase 5/CDK5 activator 1 (Homo sapiens, UniProt Q00535) assay: IC50 of C#Cc1cccc(NC(=O)Nc2cccc3c2C2CCCCN2C3=O)n1 (racemic) = ?
Found: 80 nM

Lookup: Notebook entry, Cyclin-dependent kinase 5/CDK5 activator 1 (Homo sapiens, UniProt Q00535) assay: IC50 of O=C(Nc1cc(-c2cn(CCNc3c4c(nc5ccccc35)CCCC4)nn2)ccn1)Nc1cccc2c1[C@@H]1CCCCN1C2=O = ?
Found: 1100 nM

Lookup: Notebook entry, Cyclin-dependent kinase 5/CDK5 activator 1 (Homo sapiens, UniProt Q00535) assay: IC50 of O=C(Nc1cc(COCc2cn(CCNc3ccnc4ccccc34)nn2)ccn1)Nc1cccc2c1C1CCCCN1C2=O (racemic) = ?
Found: 240 nM

Lookup: Notebook entry, Cyclin-dependent kinase 5/CDK5 activator 1 (Homo sapiens, UniProt Q00535) assay: IC50 of Cn1cc(COCc2ccnc(NC(=O)Nc3cccc4c3C3CCCCN3C4=O)c2)nn1 (racemic) = ?
Found: 250 nM

Lookup: Notebook entry, Cyclin-dependent kinase 5/CDK5 activator 1 (Homo sapiens, UniProt Q00535) assay: IC50 of O=C(Nc1cc(COCc2cn(CCCc3ccccc3)nn2)ccn1)Nc1cccc2c1C1CCCCN1C2=O (racemic) = ?
Found: 260 nM

Lookup: Notebook entry, Cyclin-dependent kinase 5/CDK5 activator 1 (Homo sapiens, UniProt Q00535) assay: IC50 of C#CCOCc1ccnc(NC(=O)Nc2cccc3c2C2CCCCN2C3=O)c1 (racemic) = ?
Found: 150 nM

Lookup: Notebook entry, Cyclin-dependent kinase 5/CDK5 activator 1 (Homo sapiens, UniProt Q00535) assay: IC50 of C#Cc1ccnc(NC(=O)Nc2cccc3c2[C@@H]2CCCCN2C3=O)c1 = ?
Found: 50 nM

Lookup: Notebook entry, Cyclin-dependent kinase 5/CDK5 activator 1 (Homo sapiens, UniProt Q00535) assay: IC50 of C#Cc1ccnc(NC(=O)Nc2cccc3c2[C@H]2CCCCN2C3=O)c1 = ?
Found: 18 nM

Lookup: Notebook entry, Cyclin-dependent kinase 5/CDK5 activator 1 (Homo sapiens, UniProt Q00535) assay: IC50 of C#CCN(C)Cc1ccnc(NC(=O)Nc2cccc3c2C2CCCCN2C3=O)c1 (racemic) = ?
Found: 90 nM
